Below: a set of entries, each annotated with reported P3_MyD88 Rank (after).
Molecular target: MyD88^TIR (Homo sapiens, UniProt Q99836)
Construct: MyD88 (residues 148–296); 6xHis; made in house; host or cells: E. coli BL21 (DE3)
Sequence (Q99836 148-296): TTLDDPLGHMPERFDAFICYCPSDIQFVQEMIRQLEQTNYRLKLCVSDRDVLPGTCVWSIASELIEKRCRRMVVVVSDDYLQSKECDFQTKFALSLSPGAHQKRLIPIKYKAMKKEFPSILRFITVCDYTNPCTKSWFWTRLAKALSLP
Experiment: T‐Surf phage library (P8 and P3) selection against MyD88^TIR, four rounds, NGS read counts
Type: binding
Settings: P3 library, selection against MyD88, rank after grouping
Keep the answer to the number alone.

As a guide, the following entries are already answered.
{"Biosequence": "NRWRNALTAAANLRGG", "Readout kind": "P3_MyD88 Rank (after)", "Quantitative readout": 510}
{"Biosequence": "SSVRECLWRLLELSKK", "Readout kind": "P3_MyD88 Rank (after)", "Quantitative readout": 516}
{"Biosequence": "GWIREHLWPLLKQRMT", "Readout kind": "P3_MyD88 Rank (after)", "Quantitative readout": 521}
{"Biosequence": "KNLFNLLGSKDIRALM", "Readout kind": "P3_MyD88 Rank (after)", "Quantitative readout": 542}
{"Biosequence": "YYLDHSHPRKQNGEFG", "Readout kind": "P3_MyD88 Rank (after)", "Quantitative readout": 556}

**Q:** Form field: reported P3_MyD88 Rank (after) of `DHHLALPRGKASKPEHLG`
**A:** 525

**Q:** Please give the result for `YAFTGHLPRDLVLRGG` too.
**A:** 491

**Q:** Please give the result for `KEVEGWRDALTKVANLSGW` too.
**A:** 522
